System: NCI-H460 lung
Thanks in advance; please answer with one of these: TRUE (active), FALSE (inactive)

- compound: "COc1ccc(/C=C/C(=O)c2c(O)ccc3c(C)c(C(=O)O)oc23)cc1"
  cat: "FALSE"
- compound: "CN1CCN(Cc2ccc(NC(=O)c3cncc(C#Cc4c(N)ncc5ccc(C#N)cc45)c3)cc2C(F)(F)F)CC1"
  cat: "FALSE"
- compound: "Cn1cc(C2=C(c3c4n(c5ccccc35)CCNC4)C(=O)NC2=O)c2ccccc21"
  cat: "FALSE"
- compound: "C/C(=N\\NC(=S)N1CCN(c2ccccn2)CC1)c1ccccn1"
  cat: "TRUE"
- compound: "CCN1CCC(CC(=O)Nc2n[nH]c3nnc(-c4cccc(F)c4F)cc23)CC1"
  cat: "FALSE"

As a next step, examine the compound that follows.
Inquiry: Look up the recorded call for COC(=O)c1cc(NC(=O)c2cc(NC(=O)c3cc([N+](=O)[O-])n(C)c3)cn2C)cn1C in this test.
Reply text: FALSE

----------
Reported values of GI50 for individual entries
Test system: SK-MEL-5 melanoma
Assay: NCI tumour cell line growth inhibition, 48 h

- compound: "O=C(CCCn1c2c(sc3ccccc32)c(=O)n2nnc(-c3ccccc3)c12)NCCc1cnc[nH]1"
  GI50: "1840 nM"
- compound: "O=C(/C=C/C12c3ccccc3C(c3ccccc31)C1C(=O)N(c3ccc(Cl)cc3)C(=O)C12)c1ccccn1 (centres undefined)"
  GI50: "515 nM"
- compound: "O=C1Nc2ccccc2/C1=C\\c1c(-c2ccccc2)nc2sccn12"
  GI50: "2200 nM"
- compound: "Cn1cc(C2=C(c3c4n(c5ccccc35)CCNC4)C(=O)NC2=O)c2ccccc21"
  GI50: "4820 nM"
- compound: "CS(=O)(=O)N1CCC(n2c(=O)c(Oc3ccc(F)cc3F)cc3cnc(NC4CCOCC4)nc32)CC1"
  GI50: "> 25000 nM"
- compound: "CNC(=O)c1nn(C)c2c1C(C)(C)Cc1cnc(Nc3cccc(N4CCN(C)CC4)c3)nc1-2"
  GI50: "954 nM"

Inquiry: Entry O=C([O][Hg][c]1ccccc1)c1ccccc1 has what GI50?
Reply text: 1530 nM

Inquiry: Entry C/C(CCC(=O)O)=N/Nc1ccc([N+](=O)[O-])cc1 has what GI50?
Reply text: 10100 nM

Inquiry: Entry COc1ccc2c(c1)N(Cc1ccc(Cl)cc1)CCC2N1CCCC1=O (centres undefined) has what GI50?
Reply text: 2050 nM

Inquiry: Entry Cc1ccc(-c2nc3nc(-c4ccc(F)cc4)nc(N4CCNCC4)c3o2)cc1 has what GI50?
Reply text: 15400 nM

Inquiry: Entry COC1=CC(c2ccc[nH]2)=N/C1=C\c1[nH]c(C)c(C(=O)CCC(=O)Oc2ccc3c(c2)CCC2C3CC[C@]3(C)[C@@H](O)CC[C@@H]23)c1C (some centres undefined) has what GI50?
Reply text: 1460 nM

----------
System: MALME-3M melanoma
Assay: NCI tumour cell line growth inhibition, 48 h
observed_property: TGI (µM)
The answer is to be given in µM; state only the numeric part.

Inquiry: Hi! What's the reported TGI for COC1=C[C@]2(CCC(=O)O2)[C@@H]2Cc3ccccc3[C@H](O)[C@@H]2C1=O on MALME-3M melanoma?
Reply text: 50.2

Inquiry: Hi! What's the reported TGI for O=C(CCCn1c2c(sc3ccccc32)c(=O)n2nnc(-c3ccccc3)c12)NCCc1cnc[nH]1 on MALME-3M melanoma?
Reply text: 3.58

----------
Reported values of TGI for individual entries
Test system: PC-3 prostate
Test: NCI tumour cell line growth inhibition, 48 h
The answer is to be given in µM; state only the numeric part.

Inquiry: Entry COc1cc(OC)cc(Oc2cnc3cc(N)cc(N)c3n2)c1 has what TGI?
Reply text: 56

Inquiry: Entry CN1CCN(C(=O)[C@@]2(C)CC[C@]3(C)CC[C@]4(C)C(=CC[C@@H]5[C@@]6(C)CCC(=O)NC(C)(C)[C@@H]6CC[C@]54C)[C@@H]3C2)CC1 has what TGI?
Reply text: 2.42

Inquiry: Entry O=C(CCCn1c2c(sc3ccccc32)c(=O)n2nnc(-c3ccccc3)c12)NCCc1cnc[nH]1 has what TGI?
Reply text: 2.21

----------
Test system: M14 melanoma
Experiment: NCI tumour cell line growth inhibition, 48 h
observed_property: TGI (µM)
The answer is to be given in µM; state only the numeric part.

Inquiry: Hi! What's the reported TGI for CCc1ccccc1NC(=O)C(C#N)C1=C(Cl)C(=O)c2ccccc2C1=O (centres undefined) on M14 melanoma?
Reply text: 21.8

----------
Tested on: K-562 leukemia
Assay: NCI tumour cell line growth inhibition, 48 h
Reported values of TGI for individual entries

In the examples that follow, each entry is paired with its recorded TGI.
- compound: "Cc1cc(Cl)nc2ccc(Cc3ccc4nc(Cl)cc(C)c4c3)cc12"
  assayed_system: "K-562 leukemia"
  TGI: "> 100 µM"
- compound: "COc1ccccc1NC(=S)N=Nc1c(O)[nH]c2ccccc12"
  assayed_system: "K-562 leukemia"
  TGI: "> 100 µM"
- compound: "CCCCCCCCCCNCCSSCc1ccc(Cl)cc1"
  assayed_system: "K-562 leukemia"
  TGI: "5.27 µM"
- compound: "COc1cc(C2c3cc4c(cc3OC(NNC(N)=O)C2C)OCO4)cc(OC)c1OC (configuration not stated)"
  assayed_system: "K-562 leukemia"
  TGI: "2.82 µM"

Next compound, TGI to be filled in.
Inquiry: Entry COC1/C=C/C=C(/C)Cc2cc(O)c(Cl)c(c2)N(C)C(=O)CC(OC(=O)C(C)C)C2(C)OC2C(C)C2CC1(O)NC(=O)O2 (configuration not stated) has what TGI?
Reply text: > 100 µM

----------
System: MDA-MB-231 breast
Assay: NCI tumour cell line growth inhibition, 48 h
Quick rule: TGI of at least 5 µM means YES, below that means NO.

// below: answered compounds
- compound: "CCn1c(-c2nonc2N)nc2c(C#CC(C)(C)O)ncc(OC3CCNCC3)c21"
  cat: "YES"
- compound: "O=c1ccc2ccc(CBr)cc2o1"
  cat: "NO"
- compound: "CC#C[C@]1(O)CCC2[C@@H]3CCC4=CC(=O)CCC4=C3[C@@H](c3ccc(N(C)C)cc3)C[C@@]21C (stereo not given in full)"
  cat: "YES"
- compound: "COC(=O)C1=COC2OC3C(C(C)O)C(=O)OC34C=CC1C24 (stereo not given)"
  cat: "YES"
- compound: "COc1cc(C2c3cc4c(cc3OC(NNc3ccccc3)C2C)OCO4)cc(OC)c1OC (stereo not given)"
  cat: "YES"

Inquiry: Decide: is the reported value of TGI for O=C([O][Hg][c]1ccccc1)c1ccccc1 equal to or greater than 5 µM?
Reply text: NO

Inquiry: Decide: is the reported value of TGI for COc1cc2c3c(n(CCCN4CCNCC4)c(=O)c2cc1OC)-c1cc2c(cc1C3=O)OCO2 equal to or greater than 5 µM?
Reply text: NO

Inquiry: Decide: is the reported value of TGI for COC1=CC(c2ccc[nH]2)=N/C1=C\c1[nH]c(C)c(C(=O)CCC(=O)Oc2ccc3c(c2)CCC2C3CC[C@]3(C)[C@@H](O)CC[C@@H]23)c1C (stereo not given in full) equal to or greater than 5 µM?
Reply text: NO

Inquiry: Decide: is the reported value of TGI for C/C(CCC(=O)O)=N/Nc1ccc([N+](=O)[O-])cc1 equal to or greater than 5 µM?
Reply text: YES

Inquiry: Decide: is the reported value of TGI for C[C@@H](N)COc1ccc(-c2cnc3ccc(N[C@H](C)c4cccc(F)c4)nn23)cc1 equal to or greater than 5 µM?
Reply text: NO

Inquiry: Decide: is the reported value of TGI for COc1cc2c(NCCCCCO)ncnc2c(OC)c1OC equal to or greater than 5 µM?
Reply text: YES

Inquiry: Decide: is the reported value of TGI for CC(C)(C)COC(=O)C(C)(C)NC(=O)C(CC(=O)OCc1ccccc1)NC(=O)OCc1ccccc1 (stereo not given) equal to or greater than 5 µM?
Reply text: YES

Inquiry: Decide: is the reported value of TGI for CN1CCN(C(=O)CCC(=O)Nc2cc3c(c4ccccc24)-c2ccc4ccccc4c2C3)CC1 equal to or greater than 5 µM?
Reply text: NO

Inquiry: Decide: is the reported value of TGI for O=C(CCCn1c2c(sc3ccccc32)c(=O)n2nnc(-c3ccccc3)c12)NCCc1cnc[nH]1 equal to or greater than 5 µM?
Reply text: NO

Inquiry: Decide: is the reported value of TGI for O=C(c1ccccc1)C(Cl)C(Cl)c1ccccc1 (stereo not given) equal to or greater than 5 µM?
Reply text: YES

Inquiry: Decide: is the reported value of TGI for Fc1ccc(-c2sc(-c3ccsc3)cc2Cc2ccsc2)cc1 equal to or greater than 5 µM?
Reply text: YES

Inquiry: Decide: is the reported value of TGI for Cn1cnc(N2CCCC2)c(C#N)c1=S equal to or greater than 5 µM?
Reply text: YES

Inquiry: Decide: is the reported value of TGI for OCc1ccc(-c2csc(-c3ccc(CO)o3)c2)o1 equal to or greater than 5 µM?
Reply text: YES

Inquiry: Decide: is the reported value of TGI for CCC(C)(C)c1cc(O)c(C(C)(C)CC)cc1O equal to or greater than 5 µM?
Reply text: YES

Inquiry: Decide: is the reported value of TGI for COc1cc2c3c(n(CCCN(CCCN(CCCn4c5c(c6ccccc6c4=O)C(=O)c4ccccc4-5)C(=O)OC(C)(C)C)C(=O)OC(C)(C)C)c(=O)c2cc1OC)-c1cc2c(cc1C3=O)OCO2 equal to or greater than 5 µM?
Reply text: YES
